# measurementProtocol: Toxicity in human HepG2 cells assessed as cell viability at 0.1 umol/L
# Assay type: cell-based
# conditionDetails: read-out: Activity
Hi there, I'd appreciate the recorded viability at 0.1 µM for every entry that follows.
Answers are plain numbers, in %.

>>> reportedvalue("COc1cc(C(=O)/C=C/c2ccc(F)cc2)cc(OC)c1OC")
93.7

# query: viability at 0.1 µM of entry "COc1cccc(OC)c1C(=O)/C=C/c1ccco1"
102

---

# targetEntity: CYP2D6 (Homo sapiens, UniProt P10635)
# Sequence (P10635 whole entry): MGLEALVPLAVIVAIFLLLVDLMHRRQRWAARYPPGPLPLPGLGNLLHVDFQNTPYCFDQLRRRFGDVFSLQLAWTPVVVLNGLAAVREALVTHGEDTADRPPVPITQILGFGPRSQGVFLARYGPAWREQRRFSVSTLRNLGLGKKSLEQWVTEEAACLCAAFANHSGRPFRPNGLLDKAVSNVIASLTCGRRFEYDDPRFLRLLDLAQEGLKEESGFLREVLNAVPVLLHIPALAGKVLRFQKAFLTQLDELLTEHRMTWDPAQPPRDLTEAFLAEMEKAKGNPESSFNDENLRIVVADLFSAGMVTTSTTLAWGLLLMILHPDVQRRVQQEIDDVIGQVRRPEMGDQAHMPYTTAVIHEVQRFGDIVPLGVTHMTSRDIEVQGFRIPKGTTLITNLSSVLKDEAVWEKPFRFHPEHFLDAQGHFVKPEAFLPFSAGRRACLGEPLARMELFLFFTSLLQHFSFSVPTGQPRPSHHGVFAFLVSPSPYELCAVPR
# measurementProtocol: Inhibition of CYP2D6 (unknown origin) at 10 umol/L
# Assay type: ADME
Hi there, I'd appreciate the recorded inhibition at 10 µM for every entry that follows.
One number for each entry, in %.

>>> reportedvalue("COc1cccc(OC)c1C(=O)/C=C/c1ccco1")
4

// fetch CYP2D6 (Homo sapiens, UniProt P10635) inhibition at 10 µM for "COc1cc(C(=O)/C=C/c2ccc(F)cc2)cc(OC)c1OC"
18.9

---

# measurementProtocol: Protein binding in human plasma at 10 umol/L
# Format: ADME, cell-free
# conditionDetails: read-out: PPB (converted)
measurementName: fraction unbound at 10 µM
Numbers only.

>>> reportedvalue("COc1cccc(OC)c1C(=O)/C=C/c1ccco1")
0.06

Then this compound:
# query: fraction unbound at 10 µM of entry "COc1cc(C(=O)/C=C/c2ccc(F)cc2)cc(OC)c1OC"
0.01

---

# Tested on: MDA-MB-231
# measurementProtocol: Cytotoxicity against human MDA-MB-231 cells expressing GFP assessed as reduction of mitochondrial activity after 6 days by MTT assay
# Assay type: cell-based
# conditionDetails: MDA-MB-231, 144 h
measurementName: pEC50
Give bare numbers, as −log10 of the molar value.

# query: pEC50 of entry "COc1cccc(OC)c1C(=O)/C=C/c1ccco1"
6.00

---

# measurementProtocol: Toxicity in human HepG2 cells assessed as cell viability at 1 umol/L
# Type: cell-based
# conditionDetails: read-out: Activity
Hi there, I'd appreciate the recorded viability at 1 µM for every entry that follows.
Answers are plain numbers, in %.

>>> reportedvalue("COc1cccc(OC)c1C(=O)/C=C/c1ccco1")
97.6

# query: viability at 1 µM of entry "COc1cc(C(=O)/C=C/c2ccc(F)cc2)cc(OC)c1OC"
93.8

---

# measurementProtocol: Permeability across apical to basolateral side of human Caco2 cells assessed as compound recovery at 10 umol/L at pH 7.4
# Type: ADME, cell-based
# conditionDetails: Caco-2, pH 7.4, read-out: Drug recovery
measurementName: recovery at 10 µM (%)
Answers are plain numbers, in %.

>>> reportedvalue("COc1cccc(OC)c1C(=O)/C=C/c1ccco1")
88

Then this compound:
# query: recovery at 10 µM of entry "COc1cc(C(=O)/C=C/c2ccc(F)cc2)cc(OC)c1OC"
17

---

# targetEntity: hERG (Homo sapiens)
# Sequence (Q12809 whole entry): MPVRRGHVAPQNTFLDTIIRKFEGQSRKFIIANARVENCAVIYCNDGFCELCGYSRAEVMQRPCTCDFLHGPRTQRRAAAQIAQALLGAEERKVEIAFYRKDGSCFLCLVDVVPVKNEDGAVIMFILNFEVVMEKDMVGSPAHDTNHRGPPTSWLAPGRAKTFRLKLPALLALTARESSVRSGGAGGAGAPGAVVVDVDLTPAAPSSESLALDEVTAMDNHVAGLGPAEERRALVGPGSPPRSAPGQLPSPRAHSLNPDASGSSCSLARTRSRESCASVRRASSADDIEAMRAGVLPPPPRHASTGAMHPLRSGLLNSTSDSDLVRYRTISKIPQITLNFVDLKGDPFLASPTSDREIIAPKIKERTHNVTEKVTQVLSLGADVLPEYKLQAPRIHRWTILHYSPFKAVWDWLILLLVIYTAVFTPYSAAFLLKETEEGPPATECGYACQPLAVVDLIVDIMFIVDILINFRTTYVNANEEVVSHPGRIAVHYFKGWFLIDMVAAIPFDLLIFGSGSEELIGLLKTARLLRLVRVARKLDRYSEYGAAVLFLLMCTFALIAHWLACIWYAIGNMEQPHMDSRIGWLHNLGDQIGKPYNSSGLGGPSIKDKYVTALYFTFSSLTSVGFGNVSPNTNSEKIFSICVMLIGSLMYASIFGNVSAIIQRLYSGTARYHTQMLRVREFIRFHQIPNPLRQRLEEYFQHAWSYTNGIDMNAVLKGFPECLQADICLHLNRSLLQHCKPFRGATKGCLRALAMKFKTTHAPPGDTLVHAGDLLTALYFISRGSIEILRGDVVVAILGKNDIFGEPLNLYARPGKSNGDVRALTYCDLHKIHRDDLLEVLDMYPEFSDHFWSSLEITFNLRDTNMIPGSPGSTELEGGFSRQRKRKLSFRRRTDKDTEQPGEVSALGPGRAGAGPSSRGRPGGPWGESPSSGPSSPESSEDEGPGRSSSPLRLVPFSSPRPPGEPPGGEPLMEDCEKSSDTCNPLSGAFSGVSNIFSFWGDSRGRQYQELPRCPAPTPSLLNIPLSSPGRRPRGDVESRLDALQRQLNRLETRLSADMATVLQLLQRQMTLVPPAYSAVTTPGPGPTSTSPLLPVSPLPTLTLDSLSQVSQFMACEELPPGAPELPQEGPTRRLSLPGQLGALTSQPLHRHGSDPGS
# measurementProtocol: Inhibition of human ERG assessed as reduction of tail current at 1 umol/L
measurementName: inhibition at 1 µM
Please state the number and follow it with the unit.

>>> reportedvalue("COc1cc(C(=O)/C=C/c2ccc(F)cc2)cc(OC)c1OC")
"9.8%"

Then this compound:
# query: inhibition at 1 µM of entry "COc1cccc(OC)c1C(=O)/C=C/c1ccco1"
20.8%

---

# measurementProtocol: Aqueous solubility of the compound in simulated intestinal fluid at 200 umol/L
# Assay type: physicochemical
Hi there, I'd appreciate the recorded solubility at 200 µM for every entry that follows.
Numbers only, in µM.

>>> reportedvalue("COc1cc(C(=O)/C=C/c2ccc(F)cc2)cc(OC)c1OC")
7.9

# query: solubility at 200 µM of entry "COc1cccc(OC)c1C(=O)/C=C/c1ccco1"
167
